Field: Kd. Provide a value for each of the binders that follow.
target-of-assay: MBP-hnRNP A1 (mouse, UniProt P49312 1-320)
Sequence (P49312 whole entry): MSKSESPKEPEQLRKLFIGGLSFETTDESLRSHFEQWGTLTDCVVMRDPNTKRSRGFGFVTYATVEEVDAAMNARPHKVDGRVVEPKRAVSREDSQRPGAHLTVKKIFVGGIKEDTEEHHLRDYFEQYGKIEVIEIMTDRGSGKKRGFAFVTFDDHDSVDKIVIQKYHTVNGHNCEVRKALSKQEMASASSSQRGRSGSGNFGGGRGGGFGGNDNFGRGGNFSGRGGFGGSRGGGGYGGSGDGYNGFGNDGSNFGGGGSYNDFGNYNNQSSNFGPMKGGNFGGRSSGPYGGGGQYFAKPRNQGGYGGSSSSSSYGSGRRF
method-description: EMSA
Answers are plain numbers, in nM.

Past entries and their recorded results:
GGAGGUAGGUGGCGG (structured_RNA) [Mag 15 nt G7G8 (G8G9 in Table 1)]: 70
AGGUAGGUUC (ssRNA) [Mag 10 nt wt (-2 to 8)]: 145
GGAGGUAGGUUUCGG (structured_RNA) [Mag 15 nt U7U8 (U8U9 in Table 1)]: 171

Continue with the binder presented below.
Lookup: Find the recorded Kd belonging to GGAGGUAGGUAACGG (structured_RNA) [Mag 15 nt A7A8 (A8A9 in Table 1)] and report it.
Found: 106

Reference for the values: paper PMC3683929
